# Test system: E. coli UB1005 C498 wt
# Test Name: MIC determination by microtitre broth dilution
# Type: cell-based
# Reported Conditions: Gram−, Mueller Hinton broth, 37° C., 24 h, aerobic, N = No activity

Molecule	Experimental System	Minimum inhibitory concentration (MIC)
O=c1[nH]cc(F)c(=O)[nH]1 [5-Fluorouracil]	E. coli UB1005 C498 wt	10^−6 Molar
CN(Cc1cnc2nc(N)nc(N)c2n1)c1ccc(C(=O)N[C@@H](CCC(=O)O)C(=O)O)cc1 [Methotrexate]	E. coli UB1005 C498 wt	N
Sc1ncc2[nH]cnc2n1 [2-mercaptopurine]	E. coli UB1005 C498 wt	N
Nc1ncnc2c1ccn2[C@@H]1O[C@H](CO)[C@@H](O)[C@H]1O [tubercidin]	E. coli UB1005 C498 wt	N
COc1cc([C@@H]2c3cc4c(cc3[C@@H](O[C@@H]3O[C@@H]5CO[C@@H](C)O[C@H]5[C@H](O)[C@H]3O)[C@H]3COC(=O)[C@H]23)OCO4)cc(OC)c1O [etoposide]	E. coli UB1005 C498 wt	N
CC[C@@]1(O)C(=O)OCc2c1cc1n(c2=O)Cc2cc3ccccc3nc2-1 [Camptothecin]	E. coli UB1005 C498 wt	N

====

# Test system: P. aeruginosa PAE/K799 H187 Wt
# Test Name: MIC determination by microtitre broth dilution
# Type: cell-based
# Reported Conditions: Gram−, Mueller Hinton broth, 37° C., 24 h, aerobic, N = No activity
Readout Type: Minimum inhibitory concentration (MIC)

> print(dat)
                                   compound             experimental.system          val
1  Nc1ccn([C@@H]2O[C@H](CO)[C@@H](O)[C@@H]2O)c(=O)n1  P. aeruginosa PAE/K799 H187 Wt            N
2                         Sc1ncnc2nc[nH]c12  P. aeruginosa PAE/K799 H187 Wt            N
3                    NC(=O)NO [hydroxyurea]  P. aeruginosa PAE/K799 H187 Wt  10^−4 Molar

====

# System: K. pneumoniae ATCC13883 C238 wt
# Test Name: MIC determination by microtitre broth dilution
# Format: cell-based
# Reported Conditions: Gram−, Mueller Hinton broth, 37° C., 24 h, aerobic, N = No activity
# Procedure: MIC assays were conducted essentially as described by Amsterdam, D. 1996, “Susceptibility testing of antimicrobials in liquid media,” p. 52–111. In Loman, V., ed. Antibiotics in laboratory medicine, 4th ed. Williams and Wilkins, Baltimore, Md.
Readout Type: Minimum inhibitory concentration (MIC)

Compound	Readout Type	Val
O=C1c2c(O)ccc(O)c2C(=O)c2c(NCCNCCO)ccc(NCCNCCO)c21	Minimum inhibitory concentration (MIC)	10^−6 Molar
Nc1ccn([C@@H]2O[C@H](CO)[C@@H](O)[C@@H]2O)c(=O)n1	Minimum inhibitory concentration (MIC)	N
COc1cccc2c1C(=O)c1c(O)c3c(c(O)c1C2=O)C[C@@](O)(C(=O)CO)C[C@@H]3O[C@H]1C[C@H](N)[C@H](O)[C@H](C)O1	Minimum inhibitory concentration (MIC)	10^−6 Molar
Sc1ncnc2nc[nH]c12	Minimum inhibitory concentration (MIC)	N
CN(Cc1cnc2nc(N)nc(N)c2n1)c1ccc(C(=O)N[C@@H](CCC(=O)O)C(=O)O)cc1 [Methotrexate]	Minimum inhibitory concentration (MIC)	10^−6 Molar
NC(=O)NO [hydroxyurea]	Minimum inhibitory concentration (MIC)	N
COc1cc([C@@H]2c3cc4c(cc3[C@@H](O[C@@H]3O[C@@H]5CO[C@@H](C)O[C@H]5[C@H](O)[C@H]3O)[C@H]3COC(=O)[C@H]23)OCO4)cc(OC)c1O [etoposide]	Minimum inhibitory concentration (MIC)	10^−5 Molar
Sc1ncc2[nH]cnc2n1	Minimum inhibitory concentration (MIC)	N
O=c1[nH]cc(F)c(=O)[nH]1	Minimum inhibitory concentration (MIC)	10^−6 Molar
Nc1ncnc2c1ccn2[C@@H]1O[C@H](CO)[C@@H](O)[C@H]1O	Minimum inhibitory concentration (MIC)	N
CC[C@@]1(O)C(=O)OCc2c1cc1n(c2=O)Cc2cc3ccccc3nc2-1	Minimum inhibitory concentration (MIC)	N

====

# System: S. epidermidis C621 wt
# Test Name: MIC determination by microtitre broth dilution
# Format: cell-based
# Reported Conditions: Gram+, Mueller Hinton broth, 37° C., 24 h, aerobic, N = No activity
Readout Type: Minimum inhibitory concentration (MIC)

Molecule	Readout Type	Val
COc1cccc2c1C(=O)c1c(O)c3c(c(O)c1C2=O)C[C@@](O)(C(=O)CO)C[C@@H]3O[C@H]1C[C@H](N)[C@H](O)[C@H](C)O1	Minimum inhibitory concentration (MIC)	10^−6 Molar
CN(Cc1cnc2nc(N)nc(N)c2n1)c1ccc(C(=O)N[C@@H](CCC(=O)O)C(=O)O)cc1 [Methotrexate]	Minimum inhibitory concentration (MIC)	N
NC(=O)NO [hydroxyurea]	Minimum inhibitory concentration (MIC)	N
Sc1ncc2[nH]cnc2n1	Minimum inhibitory concentration (MIC)	N
O=c1[nH]cc(F)c(=O)[nH]1	Minimum inhibitory concentration (MIC)	10^−7 Molar
Sc1ncnc2nc[nH]c12	Minimum inhibitory concentration (MIC)	N
Nc1ncnc2c1ccn2[C@@H]1O[C@H](CO)[C@@H](O)[C@H]1O	Minimum inhibitory concentration (MIC)	N
Nc1ccn([C@@H]2O[C@H](CO)[C@@H](O)[C@@H]2O)c(=O)n1	Minimum inhibitory concentration (MIC)	N
CC[C@@]1(O)C(=O)OCc2c1cc1n(c2=O)Cc2cc3ccccc3nc2-1	Minimum inhibitory concentration (MIC)	10^−4 Molar
COc1cc([C@@H]2c3cc4c(cc3[C@@H](O[C@@H]3O[C@@H]5CO[C@@H](C)O[C@H]5[C@H](O)[C@H]3O)[C@H]3COC(=O)[C@H]23)OCO4)cc(OC)c1O [etoposide]	Minimum inhibitory concentration (MIC)	10^−6 Molar
O=C1c2c(O)ccc(O)c2C(=O)c2c(NCCNCCO)ccc(NCCNCCO)c21	Minimum inhibitory concentration (MIC)	10^−5 Molar

====

# Tested on: P. aeruginosa PAE/K799 H187 Wt
# Test Name: MIC determination by microtitre broth dilution
# Assay type: cell-based
# Reported Conditions: Gram−, Mueller Hinton broth, 37° C., 24 h, aerobic, N = No activity

Compound	Minimum inhibitory concentration (MIC)
Nc1ncnc2c1ccn2[C@@H]1O[C@H](CO)[C@@H](O)[C@H]1O [tubercidin]	N
CN(Cc1cnc2nc(N)nc(N)c2n1)c1ccc(C(=O)N[C@@H](CCC(=O)O)C(=O)O)cc1 [Methotrexate]	N
CC[C@@]1(O)C(=O)OCc2c1cc1n(c2=O)Cc2cc3ccccc3nc2-1 [Camptothecin]	N
O=c1[nH]cc(F)c(=O)[nH]1 [5-Fluorouracil]	10^−5 Molar
COc1cccc2c1C(=O)c1c(O)c3c(c(O)c1C2=O)C[C@@](O)(C(=O)CO)C[C@@H]3O[C@H]1C[C@H](N)[C@H](O)[C@H](C)O1 [Doxorubicin]	10^−5 Molar
Sc1ncc2[nH]cnc2n1 [2-mercaptopurine]	N
O=C1c2c(O)ccc(O)c2C(=O)c2c(NCCNCCO)ccc(NCCNCCO)c21 [mitoxantrone]	10^−5 Molar
COc1cc([C@@H]2c3cc4c(cc3[C@@H](O[C@@H]3O[C@@H]5CO[C@@H](C)O[C@H]5[C@H](O)[C@H]3O)[C@H]3COC(=O)[C@H]23)OCO4)cc(OC)c1O [etoposide]	N

====

# System: E. coli UB1005 C498 wt
# Test Name: MIC determination by microtitre broth dilution
# Assay type: cell-based
# Reported Conditions: Gram−, Mueller Hinton broth, 37° C., 24 h, aerobic, N = No activity
Readout Type: Minimum inhibitory concentration (MIC)

> print(dat)
                                   compound                            readout.type          val
1                         Sc1ncnc2nc[nH]c12  Minimum inhibitory concentration (MIC)            N
2  O=C1c2c(O)ccc(O)c2C(=O)c2c(NCCNCCO)ccc(NCCNCCO)c21  Minimum inhibitory concentration (MIC)  10^−5 Molar
3                    NC(=O)NO [hydroxyurea]  Minimum inhibitory concentration (MIC)            N
4  Nc1ccn([C@@H]2O[C@H](CO)[C@@H](O)[C@@H]2O)c(=O)n1  Minimum inhibitory concentration (MIC)            N
5  COc1cccc2c1C(=O)c1c(O)c3c(c(O)c1C2=O)C[C@@](O)(C(=O)CO)C[C@@H]3O[C@H]1C[C@H](N)[C@H](O)[C@H](C)O1  Minimum inhibitory concentration (MIC)  10^−4 Molar
